- assayOverview: Plasma concentrations and pharmacokinetic parameters after topical ocular, subcutaneous and intravitreal administration
- Assay type: in vivo, New Zealand White rabbits
- assayConditions: New Zealand White, rabbit, plasma, topical, 1.2 mg/eye, topical ocular 1.2 mg/eye (~0.7 mg/kg/dose); 0.50 hr; read-out: plasma Average
Structures can show the parent of a compound that is named as a salt.
measuredProperty: concentration at 0.5 h
Reply with the number, then its unit.

Fill in the blank: the reported concentration at 0.5 h of COC(=O)N[C@@H](Cc1ccccc1)C(=O)N[C@@H](Cc1ccc(NS(=O)(=O)O)cc1)c1csc(-c2cccs2)n1 [Compound 1 sodium salt] is ____.
3.03 ng/mL

====

- assayOverview: Ocular tissue concentrations (aqueous humor, vitreous humor, iris, retina, choroid, cornea) after topical ocular, subcutaneous and intravitreal administration
- Format: in vivo, New Zealand White rabbits
- assayConditions: New Zealand White, rabbit, choroid, subcutaneous, 5 mg/kg/dose, Choroid, 0.5 hr, OS; sodium salt, subcutaneous 5 mg/kg/dose, Group 2; read-out: Choroid Conc. (ng/g) OS
measuredProperty: concentration at 0.5 h (ng/g)
Please reply with the bare figure in ng/g and do not write the unit itself.

Fill in the blank: the reported concentration at 0.5 h of "COC(=O)N[C@@H](Cc1ccccc1)C(=O)N[C@@H](Cc1ccc(NS(=O)(=O)O)cc1)c1csc(-c2cccs2)n1" is ____.
282

====

- assayOverview: Ocular tissue concentrations (aqueous humor, vitreous humor, iris, retina, choroid, cornea) after topical ocular, subcutaneous and intravitreal administration
- Format: in vivo, New Zealand White rabbits
- assayConditions: New Zealand White, rabbit, iris, subcutaneous, 5 mg/kg/dose, TABLE 16: Iris, 2 hr; free acid, subcutaneous 5 mg/kg/dose, Group 3; read-out: Iris Average
- Description: To measure the concentration of Compound 1 in plasma and ocular tissues following topical ocular, subcutaneous, and intravitreal administration, New Zealand White rabbits were administered Compound 1, and plasma and ocular samples were collected at pre-determined time points. […] Ocular tissue samples from both eyes of each animal were collected and weights were recorded. Plasma and ocular tissue sample concentrations of Compound 1 were determined by LC-MS/MS. […]
measuredProperty: concentration at 2 h (ng/g)
Please reply with the bare figure in ng/g and do not write the unit itself.

Fill in the blank: the reported concentration at 2 h of "COC(=O)N[C@@H](Cc1ccccc1)C(=O)N[C@@H](Cc1ccc(NS(=O)(=O)O)cc1)c1csc(-c2cccs2)n1" is ____.
27.6

====

- assayOverview: Plasma concentrations and pharmacokinetic parameters after topical ocular, subcutaneous and intravitreal administration
- Format: in vivo, New Zealand White rabbits
- assayConditions: New Zealand White, rabbit, plasma, subcutaneous, 5 mg/kg/dose, subcutaneous 5 mg/kg/dose, suspension; 2.0 hr; read-out: plasma Average
measuredProperty: concentration at 2 hr (ng/mL)
Please reply with the bare figure in ng/mL and do not write the unit itself.

Fill in the blank: the reported concentration at 2 hr of COC(=O)N[C@@H](Cc1ccccc1)C(=O)N[C@@H](Cc1ccc(NS(=O)(=O)O)cc1)c1csc(-c2cccs2)n1 [Compound 1 free acid] is ____.
206

====

- assayOverview: Plasma concentrations and pharmacokinetic parameters after topical ocular, subcutaneous and intravitreal administration
- Type: in vivo, New Zealand White rabbits
- assayConditions: New Zealand White, rabbit, plasma, subcutaneous, 5 mg/kg/dose, subcutaneous 5 mg/kg/dose, solution; 0.50 hr; read-out: plasma Conc., individual rabbit
Structures can show the parent of a compound that is named as a salt.
measuredProperty: concentration at 0.5 hr
Reply with the number, then its unit.

Fill in the blank: the reported concentration at 0.5 hr of COC(=O)N[C@@H](Cc1ccccc1)C(=O)N[C@@H](Cc1ccc(NS(=O)(=O)O)cc1)c1csc(-c2cccs2)n1 [Compound 1 sodium salt] is ____.
883 ng/mL
